Measured Ki, listed per entry for reference.
Biological target: JAK-2 enzyme (Homo sapiens, UniProt O60674)
Sequence (O60674 whole entry): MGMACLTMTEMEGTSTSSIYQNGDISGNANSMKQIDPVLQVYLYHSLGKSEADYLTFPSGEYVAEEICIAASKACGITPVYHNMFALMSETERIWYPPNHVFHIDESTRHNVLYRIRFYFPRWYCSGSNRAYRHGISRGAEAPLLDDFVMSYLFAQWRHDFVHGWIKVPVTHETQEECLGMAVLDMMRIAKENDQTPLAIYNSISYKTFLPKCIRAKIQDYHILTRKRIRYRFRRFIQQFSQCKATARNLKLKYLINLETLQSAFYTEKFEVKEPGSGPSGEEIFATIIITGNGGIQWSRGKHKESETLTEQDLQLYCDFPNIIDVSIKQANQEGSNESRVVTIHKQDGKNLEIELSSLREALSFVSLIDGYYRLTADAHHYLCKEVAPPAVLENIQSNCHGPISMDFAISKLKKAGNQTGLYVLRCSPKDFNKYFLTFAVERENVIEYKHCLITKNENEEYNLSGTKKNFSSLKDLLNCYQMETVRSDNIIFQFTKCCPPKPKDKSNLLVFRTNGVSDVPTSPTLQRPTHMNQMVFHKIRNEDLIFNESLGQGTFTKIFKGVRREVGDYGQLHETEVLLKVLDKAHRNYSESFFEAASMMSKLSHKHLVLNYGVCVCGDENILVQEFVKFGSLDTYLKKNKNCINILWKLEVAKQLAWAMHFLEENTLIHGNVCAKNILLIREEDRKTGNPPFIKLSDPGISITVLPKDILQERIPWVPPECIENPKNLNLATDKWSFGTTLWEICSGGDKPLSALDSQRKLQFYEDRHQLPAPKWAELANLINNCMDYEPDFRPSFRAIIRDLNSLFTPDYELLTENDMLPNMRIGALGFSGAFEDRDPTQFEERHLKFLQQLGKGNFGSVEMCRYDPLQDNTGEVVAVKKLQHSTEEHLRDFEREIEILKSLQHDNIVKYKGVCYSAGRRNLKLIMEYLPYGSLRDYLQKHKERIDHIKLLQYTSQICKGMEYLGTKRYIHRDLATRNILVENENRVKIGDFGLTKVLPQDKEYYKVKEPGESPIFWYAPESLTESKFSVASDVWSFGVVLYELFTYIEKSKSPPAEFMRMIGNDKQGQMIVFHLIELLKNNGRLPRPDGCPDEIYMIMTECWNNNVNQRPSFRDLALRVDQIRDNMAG
valueType: Ki

# compound, valueType, measurement
rows = [
    ("CC[C@H](Nc1cc(-c2c(N)nn3ccc(C)nc23)ncn1)c1ccc(F)c(F)c1", "Ki", "< 10 nM"),
    ("C[C@H](Nc1cc(-c2cnn3cccnc23)nc(OCC2CCCN(C)C2)n1)c1ccc(F)cc1F (stereo partly drawn)", "Ki", "< 10 nM"),
    ("C[C@H](Nc1cc(-c2c(N)nn3cccnc23)nc(OCC2CCCC2)n1)c1ccc(F)cc1", "Ki", "10 to 100 nM"),
]
